# STUDY_SYSTEM: Endothelin receptor type B (Homo sapiens)
# Sequence (P24530 whole entry): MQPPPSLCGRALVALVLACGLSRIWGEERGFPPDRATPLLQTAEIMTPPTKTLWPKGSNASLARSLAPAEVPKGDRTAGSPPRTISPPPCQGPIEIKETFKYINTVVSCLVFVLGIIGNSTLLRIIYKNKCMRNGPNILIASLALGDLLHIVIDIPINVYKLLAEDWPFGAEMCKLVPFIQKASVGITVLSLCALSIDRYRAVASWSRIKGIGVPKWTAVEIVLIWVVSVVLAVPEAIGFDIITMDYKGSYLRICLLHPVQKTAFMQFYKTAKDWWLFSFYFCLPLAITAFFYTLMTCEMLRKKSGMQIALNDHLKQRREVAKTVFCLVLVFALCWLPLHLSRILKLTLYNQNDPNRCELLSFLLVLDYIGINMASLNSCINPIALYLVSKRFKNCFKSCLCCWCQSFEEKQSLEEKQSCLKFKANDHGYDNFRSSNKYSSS
# PROTOCOL_TEXT: Antagonist activity towards human recombinant Endothelin B receptor expressed in chinese hamster ovary (CHO) cells determined using [125I]ET1 as radioligand
pIC50: −log10 of the molar value.
MEASURE_NAME: pIC50

a: Cc1cc(C)nc(O[C@H](C(=O)O)[C@@]2(c3ccccc3)NCC(=O)N(Cc3cccc(C(F)(F)F)c3)c3ccccc32)n1 (racemic)
b: COc1ccc(CN2C(=O)CN[C@](c3ccc(F)c(C)c3)([C@H](Oc3nc(C)cc(C)n3)C(=O)O)c3ccccc32)cc1 (racemic)
I need your help: which of the pair a , b has higher pIC50? Please indicate the selected item by its label.
a
